Test system: A498 renal
assay remarks: NCI tumour cell line growth inhibition, 48 h
property measured: TGI

Guide cases for TGI, answers given:
Cc1cc(O)cc2c1O[C@@]1(C)CCC3[C@@]4(C)CC[C@H](O)C(C)(C)C4CC[C@@]3(C)[C@H]1C2 (stereo not given in full) = 36.3 µM
C[C@@H]1C=C2C(=O)O[C@@H]3CC[C@H](C1)[C@]23O = 38.3 µM
CN(C)c1nc(NN)c2c(-c3ccccc3)c(-c3ccccc3)oc2n1 = > 100 µM

Quick request: TGI for each listed item, please.
1. CCOP(=O)(OCC)/C(C#N)=C/c1cccn1CC(C)C
2. O=C(OC(=C(c1ccccc1)c1ccccc1)N1CCCC1=S)C(c1ccccc1)c1ccccc1
3. O=C(NC1=NC2C=CC([N+](=O)[O-])=CC2S1)C(=O)Nn1c(=S)[nH]c2ccccc2c1=O (stereo not given)
4. COc1ccc(C2=NN(C(C)=O)C(c3cn(-c4ccccc4)nc3-c3ccc(Cl)cc3)C2)cc1 (stereo not given)
5. Cc1n[nH]c(=O)n1/N=C/c1c[nH]c2ccccc12
6. COc1ccc2[nH]c3c(c2c1)COc1ccccc1C3=O

*A*
> 100 µM
> 10 µM
> 100 µM
> 100 µM
> 100 µM
> 100 µM

*Q* Field request: TGI | item: `O=c1oc2ccc3ccccc3c2cc1-c1nc2ccccc2o1`
*A* > 77.5 µM

---

System: CAKI-1 renal
assay remarks: NCI tumour cell line growth inhibition, 48 h
property measured: TGI

The cases that follow already have their TGI on record.
OCCN(CCO)c1ccc2c(c1)Cc1ccccc1-2 = 32 µM
CCC(=C/[C@H](C)C/C=C/C(C)=C/[C@@H](C)C(=O)[C@@H](C)[C@H](O)[C@@H](C)CC)/C=C/[C@H]1OC(=O)C=C[C@H]1C = 1.8 µM
Oc1c(C2=N[C@H]3CCCC[C@@H]3N2)ccc2ccccc12 = > 100 µM
Nc1c(C(=O)Nc2ccccc2Cl)sc2nc3c(cc12)CCCCCC3 = > 100 µM
O=C(/C=C/c1ccco1)CC(=O)/C=C/c1ccco1 = 26.2 µM

# map each molecule to its TGI
1. CCOC(=O)/C(=C/c1ccc(C#N)cc1)N(CC)CC
2. Cc1cc(C)c2c(=O)n(CN3CCC(O)(c4ccccc4)CC3)sc2n1
3. CC(C)NC(=O)OCCN=C1c2ccccc2CCc2ccccc21
4. CC#C[I+]c1ccccc1
5. COc1nc2sc3c(c2c(=O)n1CCCSSCCCn1c(OC)nc2sc4c(c2c1=O)CCCC4)CCCC3
6. Cn1cc(C2=C(c3cn(CCN)c4ccccc34)C(=O)NC2=O)c2ccccc21
7. CC12CCC[C@@](C)(C(=O)OC3OC(CO)C(O)C(O)C3O)[C@H]1CCC13CC4CC(OC4(CO)[C@H]1O)[C@@H]23 (stereo partly specified)
8. CCOC(=O)c1c(C(F)(F)F)n([O-])c2ccc(OC)cc2[n+]1=O

*A*
1: > 100 µM; 2: > 100 µM; 3: > 100 µM; 4: 27.9 µM; 5: > 100 µM; 6: 24.5 µM; 7: > 100 µM; 8: 19.9 µM

Your task in this section: give TGI for each listed record.
1. O=[n+]1c2ccccc2n([O-])c2cc(Br)ccc21
2. CCN(CC)CCCNc1nc2ccccc2c2[nH]c3ccc(OC)cc3c12

*A*
1. 17.2 µM
2. 8.25 µM

Just for reference, PubChem BioAssay (NCI) is where these values come from.
